The values you see were collected from paper PMC12736120.

# experiment.description: Plasma pharmacokinetics, QD and BID cohorts (non-compartmental)
# Assay type: in vivo, human
# test.settings: human, plasma, oral, 50 mg, QD; C1D21; plasma; read-out: AUC0–12, Mean
observed.property: AUC

chemical_smiles=Nc1ncc(-c2cnn(C3CCNCC3)c2)cc1-c1nnc(CC2CC2)o1 result="706 ng·h/mL"

====

# experiment.description: Plasma pharmacokinetics, QD and BID cohorts (non-compartmental)
# Format: in vivo, human
# test.settings: human, plasma, oral, 25 mg, QD; C1D21; plasma; read-out: Tmax, Median
observed.property: Tmax (h)

chemical_smiles=Nc1ncc(-c2cnn(C3CCNCC3)c2)cc1-c1nnc(CC2CC2)o1 observed_property=Tmax result_number=2.1

====

# experiment.description: Plasma pharmacokinetics, QD and BID cohorts (non-compartmental)
# Assay type: in vivo, human
# test.settings: human, plasma, oral, overall, as stated in the abstract; read-out: median Tmax
observed.property: Tmax (h)

chemical_smiles=Nc1ncc(-c2cnn(C3CCNCC3)c2)cc1-c1nnc(CC2CC2)o1 reading_unit=h result_number=2

====

# experiment.description: Plasma pharmacokinetics, QD and BID cohorts (non-compartmental)
# Assay type: in vivo, human
# test.settings: human, plasma, oral, 200 mg, 200 mg BID, C1D21, median, n=2, plasma; read-out: Tmax
observed.property: Tmax (h)

molecule="Nc1ncc(-c2cnn(C3CCNCC3)c2)cc1-c1nnc(CC2CC2)o1 [SLC-391]" result_number=2.4

====

# experiment.description: Plasma pharmacokinetics, QD and BID cohorts (non-compartmental)
# Assay type: in vivo, human
# test.settings: human, plasma, oral, 150 mg, 150 mg BID, C1D1, mean, n=5, plasma; read-out: AUC0–12
observed.property: AUC (ng·h/mL)

compound="Nc1ncc(-c2cnn(C3CCNCC3)c2)cc1-c1nnc(CC2CC2)o1 [SLC-391]" observed_property=AUC result_number=1050

====

# experiment.description: Plasma pharmacokinetics, QD and BID cohorts (non-compartmental)
# Assay type: in vivo, human
# test.settings: human, plasma, oral, 175 mg, QD; C1D1; plasma; n 1; read-out: AUC0–12, Mean
observed.property: AUC (ng·h/mL)

chemical_smiles=Nc1ncc(-c2cnn(C3CCNCC3)c2)cc1-c1nnc(CC2CC2)o1 result_number=1500

====

# experiment.description: Plasma pharmacokinetics, QD and BID cohorts (non-compartmental)
# Format: in vivo, human
# test.settings: human, plasma, oral, 75 mg, 75 mg BID, C1D1, mean, n=3, plasma; read-out: Cmax
observed.property: Cmax

chemical_smiles=Nc1ncc(-c2cnn(C3CCNCC3)c2)cc1-c1nnc(CC2CC2)o1 result="114 ng/mL"

====

# experiment.description: Plasma pharmacokinetics, QD and BID cohorts (non-compartmental)
# Assay type: in vivo, human
# test.settings: human, plasma, oral, 150 mg, 150 mg BID, C1D21, mean, n=6, plasma; read-out: AUC0–last
observed.property: AUC(0-t) (ng·h/mL)

compound="Nc1ncc(-c2cnn(C3CCNCC3)c2)cc1-c1nnc(CC2CC2)o1 [SLC-391]" result_number=9080

====

# experiment.description: Plasma pharmacokinetics, QD and BID cohorts (non-compartmental)
# Assay type: in vivo, human
# test.settings: human, plasma, oral, 175 mg, QD; C1D1; plasma; read-out: Cmax, Median
observed.property: Cmax (ng/mL)

molecule="Nc1ncc(-c2cnn(C3CCNCC3)c2)cc1-c1nnc(CC2CC2)o1 [SLC-391]" observed_property=Cmax reading_unit=ng/mL result_number=357

====

# experiment.description: Plasma pharmacokinetics, QD and BID cohorts (non-compartmental)
# Type: in vivo, human
# test.settings: human, plasma, oral, 125 mg, QD; C1D1; plasma; read-out: AUC0–last, Median
observed.property: AUC(0-t) (ng·h/mL)

chemical_smiles=Nc1ncc(-c2cnn(C3CCNCC3)c2)cc1-c1nnc(CC2CC2)o1 reading_unit=ng·h/mL result_number=1280

====

# experiment.description: Plasma pharmacokinetics, QD and BID cohorts (non-compartmental)
# Assay type: in vivo, human
# test.settings: human, plasma, oral, 75 mg, 75 mg BID, C1D21, median, n=3, plasma; read-out: Cmax
observed.property: Cmax (ng/mL)

chemical_smiles=Nc1ncc(-c2cnn(C3CCNCC3)c2)cc1-c1nnc(CC2CC2)o1 result_number=331

====

# experiment.description: Plasma pharmacokinetics, QD and BID cohorts (non-compartmental)
# Type: in vivo, human
# test.settings: human, plasma, oral, 110 mg, 110 mg BID, C1D1, mean, n=3, plasma; read-out: Cmax
observed.property: Cmax (ng/mL)

chemical_smiles=Nc1ncc(-c2cnn(C3CCNCC3)c2)cc1-c1nnc(CC2CC2)o1 result_number=95.2

====

# experiment.description: Plasma pharmacokinetics, QD and BID cohorts (non-compartmental)
# Assay type: in vivo, human
# test.settings: human, plasma, oral, 100 mg, QD; C1D1; plasma; n 1; read-out: AUC0–12, Mean
observed.property: AUC (ng·h/mL)

chemical_smiles=Nc1ncc(-c2cnn(C3CCNCC3)c2)cc1-c1nnc(CC2CC2)o1 observed_property=AUC result_number=1350

====

# experiment.description: Plasma pharmacokinetics, QD and BID cohorts (non-compartmental)
# Type: in vivo, human
# test.settings: human, plasma, oral, 150 mg, 150 mg BID, C1D1, mean, n=6, plasma; read-out: AUC0–last
observed.property: AUC(0-t) (ng·h/mL)

chemical_smiles=Nc1ncc(-c2cnn(C3CCNCC3)c2)cc1-c1nnc(CC2CC2)o1 observed_property=AUC(0-t) result_number=2330

====

# experiment.description: Plasma pharmacokinetics, QD and BID cohorts (non-compartmental)
# Assay type: in vivo, human
# test.settings: human, plasma, oral, 150 mg, QD; C1D1; plasma; read-out: AUC0–12, Mean
observed.property: AUC

compound="Nc1ncc(-c2cnn(C3CCNCC3)c2)cc1-c1nnc(CC2CC2)o1 [SLC-391]" result="946 ng·h/mL"

====

# experiment.description: Plasma pharmacokinetics, QD and BID cohorts (non-compartmental)
# Type: in vivo, human
# test.settings: human, plasma, oral, 50 mg, QD; C1D1; plasma; read-out: Cmax, Median
observed.property: Cmax

compound="Nc1ncc(-c2cnn(C3CCNCC3)c2)cc1-c1nnc(CC2CC2)o1 [SLC-391]" observed_property=Cmax result="65.8 ng/mL"

====

# experiment.description: Plasma pharmacokinetics, QD and BID cohorts (non-compartmental)
# Format: in vivo, human
# test.settings: human, plasma, oral, 100 mg, QD; C1D21; plasma; read-out: Cmax, Median
observed.property: Cmax (ng/mL)

chemical_smiles=Nc1ncc(-c2cnn(C3CCNCC3)c2)cc1-c1nnc(CC2CC2)o1 result_number=436

====

# experiment.description: Plasma pharmacokinetics, QD and BID cohorts (non-compartmental)
# Format: in vivo, human
# test.settings: human, plasma, oral, 200 mg, 200 mg BID, C1D1, median, n=3, plasma; read-out: AUC0–12
# Description: PK parameters were calculated by standard non-compartmental methods for SLC-391. Due to the long half-life of SLC-391 compared to the dosing interval, it was not possible to calculate a number of PK parameters, including plasma half-life and rate of elimination. Accumulation was assessed from the mean accumulation ratio factor (AR factor) calculated as the repeated dose (C1D21) mean value/single dose (C1D1) mean value for the PK parameters Cmax, AUC0–12, and AUC0–last for each dose group. […]
observed.property: AUC (ng·h/mL)

chemical_smiles=Nc1ncc(-c2cnn(C3CCNCC3)c2)cc1-c1nnc(CC2CC2)o1 reading_unit=ng·h/mL result_number=1130

====

# experiment.description: Plasma pharmacokinetics, QD and BID cohorts (non-compartmental)
# Assay type: in vivo, human
# test.settings: human, plasma, oral, 75 mg, 75 mg BID, C1D1, median, n=3, plasma; read-out: Tmax
observed.property: Tmax

chemical_smiles=Nc1ncc(-c2cnn(C3CCNCC3)c2)cc1-c1nnc(CC2CC2)o1 result="3 h"

====

# experiment.description: Plasma pharmacokinetics, QD and BID cohorts (non-compartmental)
# Type: in vivo, human
# test.settings: human, plasma, oral, after 21 days of QD dosing; read-out: Cmin, range across cohorts
observed.property: concentration at 21 days

molecule="Nc1ncc(-c2cnn(C3CCNCC3)c2)cc1-c1nnc(CC2CC2)o1 [SLC-391]" result="0.0103 to 0.152 µg/mL"

====

# experiment.description: Plasma pharmacokinetics, QD and BID cohorts (non-compartmental)
# Type: in vivo, human
# test.settings: human, plasma, oral, BID, 75 mg to 200 mg; C1D21; read-out: mean AUC0–last, range across cohorts
observed.property: AUC(0-t)

chemical_smiles=Nc1ncc(-c2cnn(C3CCNCC3)c2)cc1-c1nnc(CC2CC2)o1 observed_property=AUC(0-t) result="4280 to 16400 ng·h/mL"

====

# experiment.description: Plasma pharmacokinetics, QD and BID cohorts (non-compartmental)
# Assay type: in vivo, human
# test.settings: human, plasma, oral, 150 mg, QD; C1D1; plasma; read-out: AUC0–12, Median
observed.property: AUC (ng·h/mL)

chemical_smiles=Nc1ncc(-c2cnn(C3CCNCC3)c2)cc1-c1nnc(CC2CC2)o1 result_number=892
